// data source = patent US20130273029A1

Reported SK-Br-3 proliferation IC50 is given for each of the following binders.
Target: Human HER3, endogenous, on human cancer cell lines (SK-Br-3, MCF7, BT-474) (human, UniProt P21860 20-1342)
Sequence (P21860 20-1342): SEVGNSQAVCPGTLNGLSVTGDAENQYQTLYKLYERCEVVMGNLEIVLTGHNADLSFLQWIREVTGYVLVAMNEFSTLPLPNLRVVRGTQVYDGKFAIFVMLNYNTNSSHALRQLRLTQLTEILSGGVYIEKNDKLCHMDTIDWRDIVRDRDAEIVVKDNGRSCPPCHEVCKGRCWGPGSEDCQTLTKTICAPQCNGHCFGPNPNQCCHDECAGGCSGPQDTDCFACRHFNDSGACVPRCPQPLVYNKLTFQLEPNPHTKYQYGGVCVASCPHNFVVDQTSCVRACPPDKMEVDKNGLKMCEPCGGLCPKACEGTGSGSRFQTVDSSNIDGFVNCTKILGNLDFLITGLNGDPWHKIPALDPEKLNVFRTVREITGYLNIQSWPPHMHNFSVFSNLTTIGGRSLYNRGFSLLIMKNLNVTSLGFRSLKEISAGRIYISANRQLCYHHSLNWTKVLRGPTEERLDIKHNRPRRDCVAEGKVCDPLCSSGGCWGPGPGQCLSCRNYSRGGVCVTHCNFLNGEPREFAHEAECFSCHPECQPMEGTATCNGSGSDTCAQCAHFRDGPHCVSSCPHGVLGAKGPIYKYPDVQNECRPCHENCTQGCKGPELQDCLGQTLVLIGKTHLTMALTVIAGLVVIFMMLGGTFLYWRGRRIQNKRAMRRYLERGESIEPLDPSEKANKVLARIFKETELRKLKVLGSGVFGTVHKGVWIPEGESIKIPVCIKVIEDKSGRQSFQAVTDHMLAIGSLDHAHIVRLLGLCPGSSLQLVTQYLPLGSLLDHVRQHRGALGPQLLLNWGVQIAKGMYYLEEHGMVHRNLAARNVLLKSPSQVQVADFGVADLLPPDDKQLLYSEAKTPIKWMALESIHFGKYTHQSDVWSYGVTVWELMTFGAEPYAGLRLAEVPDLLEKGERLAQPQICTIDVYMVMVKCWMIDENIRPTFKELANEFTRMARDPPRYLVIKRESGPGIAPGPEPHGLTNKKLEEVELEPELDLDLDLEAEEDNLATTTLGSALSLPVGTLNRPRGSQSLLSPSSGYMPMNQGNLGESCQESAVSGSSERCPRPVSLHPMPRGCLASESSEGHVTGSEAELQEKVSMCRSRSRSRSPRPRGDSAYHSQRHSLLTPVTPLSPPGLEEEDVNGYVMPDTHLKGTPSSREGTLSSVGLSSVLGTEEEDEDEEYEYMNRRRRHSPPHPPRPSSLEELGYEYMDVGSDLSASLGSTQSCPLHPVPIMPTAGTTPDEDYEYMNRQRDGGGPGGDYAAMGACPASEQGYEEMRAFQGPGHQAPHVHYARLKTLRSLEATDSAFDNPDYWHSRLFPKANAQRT
Experiment: cell-based or functional assay
recorded.endpoint: SK-Br-3 proliferation IC50

| binder | recorded.endpoint | reported.measurement |
| --- | --- | --- |
| MOR13768 (antibody, human IgG1, kappa, V domains shown, tested as IgG) VH: QVQLVQSGAEVKKPGESLKISCKGSGYSFTSSWVAWVRQMPGKGLEWMGIIYPGQSDTIYSPSFQGQVTISADKSISTAYLQWSSLKASDTAMYYCARVHIIQPPSAWSYNAMDVWGQGTLVTVSS VL: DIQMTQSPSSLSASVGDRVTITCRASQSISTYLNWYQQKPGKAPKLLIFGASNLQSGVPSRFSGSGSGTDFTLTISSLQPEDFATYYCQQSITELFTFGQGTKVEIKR | SK-Br-3 proliferation IC50 | 0.198 nM |
| MOR13750 (antibody, human IgG1, kappa, V domains shown, tested as IgG) VH: QVQLVQSGAEVKKPGESLKISCKGSGYSFTSSWVAWVRQMPGKGLEWMGIIYPGGSDTIYSPSFQGQVTISADKSISTAYLQWSSLKASDTAMYYCARVHIIQPPSAWSYNAMDVWGQGTLVTVSS VL: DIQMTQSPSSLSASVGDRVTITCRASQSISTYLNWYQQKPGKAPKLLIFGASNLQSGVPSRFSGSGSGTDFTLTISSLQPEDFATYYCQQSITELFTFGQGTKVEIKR | SK-Br-3 proliferation IC50 | 5.47 nM |
| MOR13754 (antibody, human IgG1, kappa, V domains shown, tested as IgG) VH: QVQLVQSGAEVKKPGESLKISCKGSGYSFTSYWVAWVRQMPGKGLEWMGIIYPGGSDTIYSPSFQGQVTISADKSISTAYLQWSSLKASDTAMYYCARVHIIQPPSAWSYNAMDVWGQGTLVTVSS VL: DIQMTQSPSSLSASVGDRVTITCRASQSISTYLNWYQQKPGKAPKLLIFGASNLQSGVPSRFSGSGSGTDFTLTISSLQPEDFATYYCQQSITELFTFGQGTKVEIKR | SK-Br-3 proliferation IC50 | 6.47 nM |
| MOR14536 (antibody, human IgG1, kappa, V domains shown, tested as IgG) VH: EVQLVQSGAEVKKPGESLKISCKGSGYSFSNYWIAWVRQMPGKGLEWMGIIYPGQSDTIYSPSFQGQVTISADKSISTAYLQWSSLKASDTAMYYCARVHIIQPPSAWSYNAMDVWGQGTLVTVSS VL: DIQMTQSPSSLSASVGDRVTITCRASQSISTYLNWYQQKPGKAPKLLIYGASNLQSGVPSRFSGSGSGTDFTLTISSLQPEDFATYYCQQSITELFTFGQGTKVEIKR | SK-Br-3 proliferation IC50 | 0.181 nM |
| MOR13766 (antibody, human IgG1, kappa, V domains shown, tested as IgG) VH: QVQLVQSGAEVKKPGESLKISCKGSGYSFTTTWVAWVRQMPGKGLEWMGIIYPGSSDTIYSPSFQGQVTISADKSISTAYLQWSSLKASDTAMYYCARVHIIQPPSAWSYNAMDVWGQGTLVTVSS VL: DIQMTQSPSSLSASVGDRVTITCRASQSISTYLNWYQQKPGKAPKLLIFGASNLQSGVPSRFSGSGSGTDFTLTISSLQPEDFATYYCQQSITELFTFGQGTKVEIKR | SK-Br-3 proliferation IC50 | 2.35 nM |
